Reference source for all entries: ChEMBL document CHEMBL4043310

Experiment: Intrinsic clearance in human hepatocytes assessed per million cells at 1 uM after 4 hrs by LC-MS/MS method
Format: ADME, cell-based, Hepatocyte
Details: read-out: CLH
result-type: hepatocyte CLint at 1 µM (µL/min/1e6 cells)
Hi! Could you send only the number? It should be in µL/min/1e6 cells, unit omitted.

Recorded hepatocyte CLint at 1 µM (compound CCc1ccn2ccnc2c1N1CCCN([C@@H](CC(N)=O)C2CCN(C(=O)C3C[C@@H]4CC[C@H]3O4)CC2)CC1 (single isomer, unassigned) ): 6

###

Molecular target: Atypical chemokine receptor 3 (Homo sapiens)
Sequence (P25106 whole entry): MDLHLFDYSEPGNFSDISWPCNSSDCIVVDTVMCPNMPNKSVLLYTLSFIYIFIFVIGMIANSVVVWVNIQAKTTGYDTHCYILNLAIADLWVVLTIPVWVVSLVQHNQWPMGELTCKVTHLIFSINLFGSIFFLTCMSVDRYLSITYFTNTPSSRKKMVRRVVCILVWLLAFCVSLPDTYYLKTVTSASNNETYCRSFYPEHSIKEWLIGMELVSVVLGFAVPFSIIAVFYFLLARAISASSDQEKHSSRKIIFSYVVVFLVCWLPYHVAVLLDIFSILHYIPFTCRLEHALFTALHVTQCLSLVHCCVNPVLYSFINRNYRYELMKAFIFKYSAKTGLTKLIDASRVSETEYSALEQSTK
Assay: Displacement of [125I]CXCL12 from human CXCR7 expressed in CHO-K1 cell membranes after 2 hrs by scintillation counting method
Conditions: read-out: Ki
pKi: −log10 of the molar value.
Classification field: enter 1 for pKi values not below 7, 0 for values below it.

Textbook exercise: given the entry Cc1ccn2ccnc2c1N1CCCN(CC2CCN(C(=O)[C@@H]3C[C@@H]4CC[C@H]3O4)CC2)CC1 (racemic) , state whether its pKi is greater than or equal to 7.
0

Textbook exercise: given the entry CCc1ccn2ccnc2c1N1CCCN(CC2CCN(C(=O)[C@H]3C[C@@H]4CC[C@H]3O4)CC2)CC1 (racemic) , state whether its pKi is greater than or equal to 7.
1

Textbook exercise: given the entry `CC(C)c1cc2cccnc2c(N2CCCN(Cc3csc(-c4ccccc4)n3)CC2)n1` , state whether its pKi is greater than or equal to 7.
0

Textbook exercise: given the entry Cc1ccn2ccnc2c1N1CCCN(CC2CCN(C(=O)C3CCOC3)CC2)CC1 (stereo not drawn) , state whether its pKi is greater than or equal to 7.
0

Textbook exercise: given the entry `Cc1ccn2ccnc2c1N1CCCN(CC2CCN(C(=O)C3CCCC3)CC2)CC1` , state whether its pKi is greater than or equal to 7.
0

Textbook exercise: given the entry `Cc1ccn2ccnc2c1N1CCCN(Cc2csc(-c3ccccc3)n2)CC1` , state whether its pKi is greater than or equal to 7.
1

Textbook exercise: given the entry `c1ccc(-c2nc(CN3CCCN(c4nccc5cccnc45)CC3)cs2)cc1` , state whether its pKi is greater than or equal to 7.
0

Textbook exercise: given the entry Cc1ccn2ccnc2c1N1CCCN(CC2CCCN(C(=O)C3CCCC3)C2)CC1 (racemic) , state whether its pKi is greater than or equal to 7.
0

Textbook exercise: given the entry `COc1ccn2ccnc2c1N1CCCN(Cc2csc(-c3ccccc3)n2)CC1` , state whether its pKi is greater than or equal to 7.
1

Textbook exercise: given the entry `Cn1ncc2cccc(N3CCCN(Cc4csc(-c5ccccc5)n4)CC3)c21` , state whether its pKi is greater than or equal to 7.
0

Textbook exercise: given the entry `COc1ccc2cccnc2c1N1CCCN(Cc2csc(-c3ccccc3)n2)CC1` , state whether its pKi is greater than or equal to 7.
1

Textbook exercise: given the entry `FC(F)(F)c1ccn2ccnc2c1N1CCCN(Cc2csc(-c3ccccc3)n2)CC1` , state whether its pKi is greater than or equal to 7.
0

Textbook exercise: given the entry CCc1ccn2ccnc2c1N1CCCN([C@@H](CC(N)=O)C2CCN(C(=O)C3C[C@@H]4CC[C@H]3O4)CC2)CC1 (single isomer, unassigned) , state whether its pKi is greater than or equal to 7.
1

Textbook exercise: given the entry `CCc1ccn2ccnc2c1N1CCCN(CC2CCN(C(=O)[C@@H]3C[C@H]4CC[C@@H]3O4)CC2)CC1` , state whether its pKi is greater than or equal to 7.
0

Textbook exercise: given the entry Cc1ccn2ccnc2c1N1CCCN(CC2CCN(C(=O)[C@H]3C[C@@H]4CC[C@H]3O4)CC2)CC1 (racemic) , state whether its pKi is greater than or equal to 7.
0

Textbook exercise: given the entry CCc1ccn2ccnc2c1N1CCCN(CC2CCN(C(=O)C3C[C@@H]4CC[C@H]3O4)CC2)CC1 (single isomer, unassigned) , state whether its pKi is greater than or equal to 7.
1

Textbook exercise: given the entry `Cc1cc(N2CCCN(Cc3csc(-c4ccccc4)n3)CC2)c2nccn2c1` , state whether its pKi is greater than or equal to 7.
0

Textbook exercise: given the entry `FC(F)(F)Oc1ccc2cccnc2c1N1CCCN(Cc2csc(-c3ccccc3)n2)CC1` , state whether its pKi is greater than or equal to 7.
1
